Target: human alpha-synuclein monomer (human, UniProt P37840 1-140)
Assay: SPR (Biacore 8K), IgG captured on anti-human Fc, aSyn monomer injected;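 further: aSyn injected as a dilution series, signal corrected against a reference cell holding an irrelevant IgG, Kd from one-to-one Langmuir kinetic fitting of kon and koff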
measured endpoint: pKd
By convention, pKd is the negative base-10 log of a molar concentration.

Consider the worked cases shown below.
HC2_L3_8 (antibody, V domains shown) VH: EVQLVESGGGLVQPGGSLRLSCAASGFTFSNAAMYWVRQAPGKGLELVSRIRTKPNNYATYHADSVKGRFTISRDNSKNTLYLQMNSLRAEDTAVYYCTADMATGDYWGQGTLVTVSS VL: DIQMTQSPSSLSASVGDRVTITCKASQNINKNLDWYQQKPGKAPKPLIYSTNNLQTGVPSRFSGSGSGTDFTLTISSLQPEDFATYYCYQFKKAWTFGQGTKVEIK = 8.52
HC2_L3_3 (antibody, V domains shown) VH: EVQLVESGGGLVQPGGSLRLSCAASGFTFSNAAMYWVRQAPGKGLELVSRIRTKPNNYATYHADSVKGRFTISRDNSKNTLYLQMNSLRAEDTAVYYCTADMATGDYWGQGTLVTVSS VL: DIQMTQSPSSLSASVGDRVTITCKASQNINKNLDWYQQKPGKAPKPLIYSTNNLQTGVPSRFSGSGSGTDFTLTISSLQPEDFATYYCYQDKKGWTFGQGTKVEIK = 8.28

Continue with the next binder.
Identify pKd associated with the binder HC2_L3_5 (antibody, V domains shown) VH: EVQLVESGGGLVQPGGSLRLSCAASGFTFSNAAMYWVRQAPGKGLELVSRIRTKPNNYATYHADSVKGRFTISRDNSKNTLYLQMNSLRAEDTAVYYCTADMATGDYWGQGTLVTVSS VL: DIQMTQSPSSLSASVGDRVTITCKASQNINKNLDWYQQKPGKAPKPLIYSTNNLQTGVPSRFSGSGSGTDFTLTISSLQPEDFATYYCYQYKNAWTFGQGTKVEIK
8.49
